assayed_target: T1, DFNB31_2, Q9P202
T1 sequence (Q9P202 274-371, limits assumed, looked up): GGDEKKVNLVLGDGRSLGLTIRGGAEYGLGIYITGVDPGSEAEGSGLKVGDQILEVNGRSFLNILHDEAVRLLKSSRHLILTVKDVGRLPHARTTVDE
method_notes: holdup assay
Parameters: key: below the threshold = too weak to quantify, mostly under pKd 3.1 to 4
condition_label: plain residues with an end cap or a label only (N-terminal biotin on a linker: ado-ado)

{"binder": "TFSRRPKTRV [CD226, Q15762]", "pKd": "below the threshold"}
{"binder": "NTALVESEDL [PALLS, Q8WX93;Q8WX93-1]", "pKd": "below the threshold"}
{"binder": "ELKAEDEVQI [DCHS2, Q6V1P9]", "pKd": "below the threshold"}
{"binder": "LVEEEEPMNL [HDAC7, Q8WUI4]", "pKd": "below the threshold"}
{"binder": "NISARRFTLC [FAM167B, Q9BTA0]", "pKd": "below the threshold"}
{"binder": "FVFESRKEIL [TBPL1, P62380]", "pKd": "below the threshold"}
{"binder": "DLLGGGSDSI [TNRC6B, Q9UPQ9]", "pKd": "below the threshold"}
{"binder": "WAKEKQHTRL [SLC17A1, Q14916]", "pKd": "below the threshold"}
